// data source = patent US9598396B2

Target or system: TANK-2 enzyme (Homo sapiens (Human), UniProt Q9H2K2)
Sequence (Q9H2K2 whole entry): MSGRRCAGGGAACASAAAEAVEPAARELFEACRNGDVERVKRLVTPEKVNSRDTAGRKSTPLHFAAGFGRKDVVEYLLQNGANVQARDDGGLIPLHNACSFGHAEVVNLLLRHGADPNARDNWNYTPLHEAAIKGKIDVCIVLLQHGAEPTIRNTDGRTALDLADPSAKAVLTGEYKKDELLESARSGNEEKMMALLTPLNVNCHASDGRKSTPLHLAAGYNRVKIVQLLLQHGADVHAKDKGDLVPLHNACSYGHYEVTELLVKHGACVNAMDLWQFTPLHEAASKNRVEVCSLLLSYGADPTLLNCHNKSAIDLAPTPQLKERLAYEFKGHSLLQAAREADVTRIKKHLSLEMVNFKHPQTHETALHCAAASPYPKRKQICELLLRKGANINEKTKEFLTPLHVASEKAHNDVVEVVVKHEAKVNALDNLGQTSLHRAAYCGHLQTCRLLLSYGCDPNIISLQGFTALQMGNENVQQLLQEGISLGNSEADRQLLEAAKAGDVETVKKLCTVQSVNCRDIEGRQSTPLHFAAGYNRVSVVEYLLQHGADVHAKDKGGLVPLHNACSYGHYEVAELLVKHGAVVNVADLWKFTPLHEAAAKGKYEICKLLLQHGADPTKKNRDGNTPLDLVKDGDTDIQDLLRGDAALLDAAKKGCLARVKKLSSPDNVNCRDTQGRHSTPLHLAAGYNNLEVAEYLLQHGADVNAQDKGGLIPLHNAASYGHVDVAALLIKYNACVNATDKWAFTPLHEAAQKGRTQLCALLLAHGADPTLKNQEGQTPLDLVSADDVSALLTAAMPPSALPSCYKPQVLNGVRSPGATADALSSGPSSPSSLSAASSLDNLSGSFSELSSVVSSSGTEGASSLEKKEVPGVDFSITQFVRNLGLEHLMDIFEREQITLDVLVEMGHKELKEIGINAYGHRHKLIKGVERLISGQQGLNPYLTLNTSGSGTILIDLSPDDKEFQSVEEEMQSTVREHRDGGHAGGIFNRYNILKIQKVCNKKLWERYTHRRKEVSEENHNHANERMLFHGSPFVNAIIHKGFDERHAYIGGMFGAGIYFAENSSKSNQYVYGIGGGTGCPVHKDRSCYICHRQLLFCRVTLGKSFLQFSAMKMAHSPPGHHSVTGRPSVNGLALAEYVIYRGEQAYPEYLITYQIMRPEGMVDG
Test method notes: In vitro Scintillation Proximity Assay (SPA) for TANK-2 inhibitory activity
Format: biochemical
Protocol conditions: auto-poly(ADP-ribosyl)ation, [3H]-NAD+, Ni flash plates (96 or 384 well)
Measured endpoint: in vitro SPA assay TANK-2 pIC50

- CC(C#N)(Cc1cc(Cl)nc(Cl)c1)c1ccc2c3c(c(=O)[nH]c2c1)CCCC3 (stereo not drawn): 6.35
- CC(C#N)(Cc1cccc(CO)c1)c1ccc2c3c(c(=O)[nH]c2c1)CCCC3 (stereo not drawn): 7.39
- Cn1c(CC(C)(C#N)c2ccc3c4c(c(=O)[nH]c3c2)CCCC4)nc2ccccc21 (stereo not drawn): 7.37

###

Target or system: UniProtKB P09874
Sequence (P09874 whole entry): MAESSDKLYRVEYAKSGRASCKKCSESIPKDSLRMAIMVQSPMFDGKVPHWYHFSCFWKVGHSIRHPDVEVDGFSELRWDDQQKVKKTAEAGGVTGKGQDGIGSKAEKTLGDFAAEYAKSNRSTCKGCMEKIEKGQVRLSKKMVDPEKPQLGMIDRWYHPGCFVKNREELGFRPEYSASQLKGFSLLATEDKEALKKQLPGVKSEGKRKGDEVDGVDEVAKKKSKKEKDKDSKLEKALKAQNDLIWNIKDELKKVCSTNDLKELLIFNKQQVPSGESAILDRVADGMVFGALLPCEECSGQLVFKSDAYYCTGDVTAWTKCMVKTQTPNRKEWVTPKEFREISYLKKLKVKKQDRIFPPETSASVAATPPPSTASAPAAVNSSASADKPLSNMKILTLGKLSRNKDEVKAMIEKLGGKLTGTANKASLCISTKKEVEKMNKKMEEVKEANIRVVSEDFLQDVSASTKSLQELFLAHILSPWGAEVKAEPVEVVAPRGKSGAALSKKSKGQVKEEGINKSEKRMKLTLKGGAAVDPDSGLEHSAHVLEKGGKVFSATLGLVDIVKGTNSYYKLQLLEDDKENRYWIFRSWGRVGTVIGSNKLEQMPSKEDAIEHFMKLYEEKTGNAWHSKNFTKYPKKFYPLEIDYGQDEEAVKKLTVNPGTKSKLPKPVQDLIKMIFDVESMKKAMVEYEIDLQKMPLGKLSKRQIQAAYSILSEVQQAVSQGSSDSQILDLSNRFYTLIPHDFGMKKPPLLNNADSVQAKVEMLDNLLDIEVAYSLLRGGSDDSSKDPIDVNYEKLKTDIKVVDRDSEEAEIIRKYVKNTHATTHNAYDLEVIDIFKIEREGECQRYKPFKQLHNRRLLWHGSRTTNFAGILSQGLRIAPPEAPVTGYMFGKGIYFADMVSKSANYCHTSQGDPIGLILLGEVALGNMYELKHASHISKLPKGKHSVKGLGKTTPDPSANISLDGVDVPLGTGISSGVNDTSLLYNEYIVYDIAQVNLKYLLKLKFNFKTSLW
Test method notes: In vitro Scintillation Proximity Assay (SPA) for PARP-1 inhibitory activity
Type: biochemical
Protocol conditions: nicked DNA activated PARP-1, [3H]-NAD+, biotinylated histones
Experimental: C.1.In Vitro Scintillation Proximity Assay (SPA) for PARP-1 Inhibitory Activity Compounds of the present invention were tested in an in vitro assay based on SPA technology (proprietary to GE healthcare). […] Histones (type II-A, supplier: Sigma) were biotinylated using the biotinylation kit of Amersham and stored aliquoted at −20° C. […] For each sample, the amount of cpm was expressed as a percentage of the mean cpm value of the controls. […]
Measured endpoint: in vitro SPA assay PARP-1 pIC50

* CC(C#N)(Cc1cccc(CO)c1)c1ccc2c3c(c(=O)[nH]c2c1)CCCC3 (centres unmarked) | 7.48
* CC(C#N)(Cc1cccc(OC(F)(F)F)c1)c1ccc2c3c(c(=O)[nH]c2c1)CCCC3 (centres unmarked) | 6.66
* CC(C#N)(Cc1cc(Cl)nc(Cl)c1)c1ccc2c3c(c(=O)[nH]c2c1)CCCC3 (centres unmarked) | 7.20
* Cn1c(CC(C)(C#N)c2ccc3c4c(c(=O)[nH]c3c2)CCCC4)nc2ccccc21 (centres unmarked) | 7.38
* CC(C#N)(Cc1cccc(C#N)n1)c1ccc2c3c(c(=O)[nH]c2c1)CCCC3 (centres unmarked) | 8.38
* C[C@](C#N)(Cc1ccccc1)c1ccc2c3c(c(=O)[nH]c2c1)CCCC3 (single isomer, unassigned) | 7.26
* CC(C#N)(Cc1cccc(Cl)c1)c1ccc2c3c(c(=O)[nH]c2c1)CCCC3 (centres unmarked) | 7.08
* CC(C#N)(Cc1ccccc1)c1ccc2c3c(c(=O)[nH]c2c1)CCCC3 (centres unmarked) | 7.44
* Cn1nc(CC(C)(C#N)c2ccc3c4c(c(=O)[nH]c3c2)CCCC4)c2ccccc21 (centres unmarked) | 7.34
* CC(C#N)(CCOc1ccc(C#N)cc1)c1ccc2c3c(c(=O)[nH]c2c1)CCCC3 (centres unmarked) | 7.35
* C[C@](C#N)(Cc1cccc(F)c1)c1ccc2c3c(c(=O)[nH]c2c1)CCCC3 (single isomer, unassigned) | 7.44
* COc1cccc(CC(C)(C#N)c2ccc3c4c(c(=O)[nH]c3c2)CCCC4)c1 (centres unmarked) | 7.06
* CC(C#N)(Cc1cccc(F)c1)c1ccc2c3c(c(=O)[nH]c2c1)CCCC3 (centres unmarked) | 9.01
* C[C@@](C#N)(Cc1cccc(F)c1)c1ccc2c3c(c(=O)[nH]c2c1)CCCC3 (single isomer, unassigned) | 7.80
* CC(C#N)(Cc1cccc(CN)c1)c1ccc2c3c(c(=O)[nH]c2c1)CCCC3 (centres unmarked) | 6.10
* CC(C#N)(Cc1cccc(C#N)c1)c1ccc2c3c(c(=O)[nH]c2c1)CCCC3 (centres unmarked) | 9.03
* C[C@@](C#N)(Cc1ccccc1)c1ccc2c3c(c(=O)[nH]c2c1)CCCC3 (single isomer, unassigned) | 7.33

###

System: Human colon carcinoma HCT116 cells
Test method notes: Detection of antiproliferative activity (Alamar Blue assay)
Assay type: cell-based
Protocol conditions: HCT-116, 96 h, 4-day incubation, read-out: Cellular assay HCT116 pIC50 (converted)
Measured endpoint: IC50 (nM)

- CC(C#N)(Cc1cccc(Cl)c1)c1ccc2c3c(c(=O)[nH]c2c1)CCCC3 (stereo not shown): 155
- CC(C#N)(Cc1cc(Cl)nc(Cl)c1)c1ccc2c3c(c(=O)[nH]c2c1)CCCC3 (stereo not shown): 158
- CC(C#N)(Cc1cccc(C#N)n1)c1ccc2c3c(c(=O)[nH]c2c1)CCCC3 (stereo not shown): 58.9
- COC(=O)c1cccc(CC(C)(C#N)c2ccc3c4c(c(=O)[nH]c3c2)CCCC4)c1 (stereo not shown): 105

###

Test system: Human colon carcinoma HCT116 cells
Test method notes: Detection of antiproliferative activity (Alamar Blue assay)
Type: cell-based
Protocol conditions: HCT-116, 96 h, 4-day incubation, read-out: Cellular assay HCT116 pIC50 (converted)
Quick rule for you: IC50 under 200 nM gets Fulfilled, anything else gets Not fulfilled.

• C[C@](C#N)(Cc1cccc(F)c1)c1ccc2c3c(c(=O)[nH]c2c1)CCCC3 (single isomer, unassigned) = Fulfilled
• C[C@@](C#N)(Cc1ccccc1)c1ccc2c3c(c(=O)[nH]c2c1)CCCC3 (single isomer, unassigned) = Not fulfilled
• CC(C#N)(Cc1cccc(CN)c1)c1ccc2c3c(c(=O)[nH]c2c1)CCCC3 (centres unmarked) = Not fulfilled
• CC(C#N)(Cc1cccc(OC(F)(F)F)c1)c1ccc2c3c(c(=O)[nH]c2c1)CCCC3 (centres unmarked) = Fulfilled
• CN(Cc1ccc(C#N)cc1)CC(C)(C#N)c1ccc2c3c(c(=O)[nH]c2c1)CCCC3 (centres unmarked) = Not fulfilled
• Cn1c(CC(C)(C#N)c2ccc3c4c(c(=O)[nH]c3c2)CCCC4)nc2ccccc21 (centres unmarked) = Not fulfilled
• C[C@@](C#N)(Cc1cccc(F)c1)c1ccc2c3c(c(=O)[nH]c2c1)CCCC3 (single isomer, unassigned) = Not fulfilled
• CN(CC(C)(C#N)c1ccc2c3c(c(=O)[nH]c2c1)CCCC3)C(=O)c1ccccc1 (centres unmarked) = Not fulfilled
• CC(C#N)(Cc1cccc(F)c1)c1ccc2c3c(c(=O)[nH]c2c1)CCCC3 (centres unmarked) = Not fulfilled
• COc1cc(OC)nc(CC(C)(C#N)c2ccc3c4c(c(=O)[nH]c3c2)CCCC4)n1 (centres unmarked) = Fulfilled
• COc1cccc(CC(C)(C#N)c2ccc3c4c(c(=O)[nH]c3c2)CCCC4)c1 (centres unmarked) = Fulfilled
• CC(C#N)(Cc1ccccc1)c1ccc2c3c(c(=O)[nH]c2c1)CCCC3 (centres unmarked) = Not fulfilled
• CC(C#N)(Cc1cccc(CO)c1)c1ccc2c3c(c(=O)[nH]c2c1)CCCC3 (centres unmarked) = Not fulfilled
• Cn1nc(CC(C)(C#N)c2ccc3c4c(c(=O)[nH]c3c2)CCCC4)c2ccccc21 (centres unmarked) = Fulfilled
• C[C@](C#N)(Cc1ccccc1)c1ccc2c3c(c(=O)[nH]c2c1)CCCC3 (single isomer, unassigned) = Fulfilled
• CC(C#N)(Cc1cccc(C#N)c1)c1ccc2c3c(c(=O)[nH]c2c1)CCCC3 (centres unmarked) = Fulfilled

###

A collection of compounds and their measured in vitro SPA assay TANK-2 pIC50
Target or system: UniProtKB Q9H2K2
Test method notes: In vitro Scintillation Proximity Assay (SPA) for TANK-2 inhibitory activity
Type: biochemical
Protocol conditions: auto-poly(ADP-ribosyl)ation, [3H]-NAD+, Ni flash plates (96 or 384 well)
Measured endpoint: in vitro SPA assay TANK-2 pIC50

* CC(C#N)(Cc1cccc(F)c1)c1ccc2c3c(c(=O)[nH]c2c1)CCCC3 (stereo not shown) | 7.71
* CC(C#N)(Cc1cccc(OC(F)(F)F)c1)c1ccc2c3c(c(=O)[nH]c2c1)CCCC3 (stereo not shown) | 7.23
* C[C@@](C#N)(Cc1cccc(F)c1)c1ccc2c3c(c(=O)[nH]c2c1)CCCC3 (single isomer, unassigned) | 7.40
* Cn1nc(CC(C)(C#N)c2ccc3c4c(c(=O)[nH]c3c2)CCCC4)c2ccccc21 (stereo not shown) | 7.37
* C[C@](C#N)(Cc1ccccc1)c1ccc2c3c(c(=O)[nH]c2c1)CCCC3 (single isomer, unassigned) | 7.48
* COc1cc(OC)nc(CC(C)(C#N)c2ccc3c4c(c(=O)[nH]c3c2)CCCC4)n1 (stereo not shown) | 7.72
* CC(C#N)(Cc1cccc(C#N)n1)c1ccc2c3c(c(=O)[nH]c2c1)CCCC3 (stereo not shown) | 8.02
* C[C@@](C#N)(Cc1ccccc1)c1ccc2c3c(c(=O)[nH]c2c1)CCCC3 (single isomer, unassigned) | 7.43
* CN(Cc1ccc(C#N)cc1)CC(C)(C#N)c1ccc2c3c(c(=O)[nH]c2c1)CCCC3 (stereo not shown) | 7.19
* C[C@](C#N)(Cc1cccc(F)c1)c1ccc2c3c(c(=O)[nH]c2c1)CCCC3 (single isomer, unassigned) | 7.47
* CC(C#N)(Cc1ccccc1)c1ccc2c3c(c(=O)[nH]c2c1)CCCC3 (stereo not shown) | 7.85
* CC(C#N)(Cc1cccc(Cl)c1)c1ccc2c3c(c(=O)[nH]c2c1)CCCC3 (stereo not shown) | 7.28
* CC(C#N)(CCOc1ccc(C#N)cc1)c1ccc2c3c(c(=O)[nH]c2c1)CCCC3 (stereo not shown) | 7.28
* CC(C#N)(Cc1cccc(CN)c1)c1ccc2c3c(c(=O)[nH]c2c1)CCCC3 (stereo not shown) | 7.42
* CC(C#N)(Cc1cccc(C#N)c1)c1ccc2c3c(c(=O)[nH]c2c1)CCCC3 (stereo not shown) | 7.76
* COc1cccc(CC(C)(C#N)c2ccc3c4c(c(=O)[nH]c3c2)CCCC4)c1 (stereo not shown) | 7.45
